Target: T1, human IGF2^1-67 (mature insulin-like growth factor 2) (human, UniProt P01344 25-91, biotinylated (site not stated) where immobilised on the chip (Tables 1-4))
T1 construct: mature; also called mature IGF2; biotinylated IGF2
T1 sequence (P01344 25-91): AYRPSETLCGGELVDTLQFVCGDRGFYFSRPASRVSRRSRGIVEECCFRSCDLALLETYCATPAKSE
Assay: SPR steady state, biotin-IGF2 on chip
Entries and their Kd values follow.
I only need the number, in nM, no unit after it.

Data request, read-out Kd, for domain 11^AB3 Q1569R (receptor, See m5; also called AB3 + 73E (CD-Q1569R)) MKSNEHDDCQVTNPSTGHLFDLSSLSGRAGFTAAYSKSGVVYMSICGENENCPPGVGACFGRTRISVGKANKRLRYVDQVLQLVYKDGSPCPSKSGLSYKSVISFVCRPEAGPTNRPMLISLDKQTCTLFFSWHTPLACEQATECSV 3.15

Data request, read-out Kd, for IGF2R domain 11^AB3 (receptor, His6-tagged soluble domain 11; also called domain 11^E1544K, K1545S, L1547V; 1542YSKSGV1547) MKSNEHDDCQVTNPSTGHLFDLSSLSGRAGFTAAYSKSGVVYMSICGENENCPPGVGACFGQTRISVGKANKRLRYVDQVLQLVYKDGSPCPSKSGLSYKSVISFVCRPEAGPTNRPMLISLDKQTCTLFFSWHTPLACEQATECSV 15.5

Data request, read-out Kd, for IGF2R domain 11^WT (receptor, Soluble His6-tagged domain 11 from P. pastoris and/or E. coli; also called wild-type domain 11) MKSNEHDDCQVTNPSTGHLFDLSSLSGRAGFTAAYSEKGLVYMSICGENENCPPGVGACFGQTRISVGKANKRLRYVDQVLQLVYKDGSPCPSKSGLSYKSVISFVCRPEAGPTNRPMLISLDKQTCTLFFSWHTPLACEQATECSV 64

Data request, read-out Kd, for domain 11^WT + 23D (HI-HFQS) (receptor, See m5; Protein quality poor based on absorption spectra) MKSNEHDDCQVTNPSTGHLFDLSSLSGRAGFTAAYSEKGLVYMSICGENENCPPGVGACFGQTRISVGKANKRLRYVDQVLQLVYKDGSPCPSKSGLSYKSVISFVCRPEAGPTNRPMLISLHFQSCTLFFSWHTPLACEQATECSV 220
